tested on: K4 kissing-loop RNA reporter; assay: apparent KD of K4 kissing-loop reporter; higher = weaker reporter binding; details: Eterna round: R107; input ligand: FMN 200 uM
measured.endpoint: apparent KD of K4 kissing-loop reporter (nM)
Please state the figure in nM; there is no need to write the unit.

Reported apparent KD of K4 kissing-loop reporter of GCCGUACGCAUGGAUACCAGCAUCGACUCAUAUACAGUGAUGUUGUGUAAUGACCUCAUUUGCCCUUGGCAGCCAUGCGUACGGC : 471

Reported apparent KD of K4 kissing-loop reporter of UACUAUAGUGAUGUUAUAGAUAAACCAGAUACCAGUGUAACAUAACACCCUUGGCAGCUGAUAAGGGAAAGUAUAAAUGUGUAUU [AstrosSSTHe-A#3newdesignED] : 230

Reported apparent KD of K4 kissing-loop reporter of UUUUUAUGCAGUGAUGUUGCUAAUAUAACAGAGGAUAUGCAUUAAAGCAGAAGGCUGAAAUACUAUACUUUAAUAAAUUAAAUUU [JR_SSFMNA_Sub013] : 94.2

* * *

Field: apparent KD of MS2 coat protein. Provide a value for each of the sequences that follow.
tested on: MS2 coat protein; experiment: apparent KD of MS2 coat protein; designed switch direction (-1 OFF switch, 1 ON switch): 1; higher = weaker reporter binding; settings: Eterna round: R98; input ligand: none
Please state the figure in nM; there is no need to write the unit.

Reported apparent KD of MS2 coat protein of GGAGACCUCACAGGAUAUGCUGGACUUUGUCCAGCAGAAGGGUGAACAUGAGGAUCACCCAUGUAAAUGGUCUCCAAAUUUAAU [Denovo 55] : 389

Reported apparent KD of MS2 coat protein of AAAUAAAAUAUAGGAUAUGGAAACAUGAGGAUCACCCAUGUAAAAUAAGAUAAAUAAUAAUAUAGCCAGAAGGAUAAAAUAUAA [LRO004_SS NG 2] : 27.6

Reported apparent KD of MS2 coat protein of GGAGGUCACAUUUACAUGAGGAUCACCCAUGUCGAAAGACAUGAGGAUAUGCUACCUAAUUGGUAGCAGAAGGCAUGGACCUCC [Mat - Same State NG 3 - JL Mod - D28] : 287

* * *

test system: MS2 coat protein; test: apparent KD of MS2 coat protein; higher = weaker reporter binding; conditions: Eterna round: R107; input ligand: arginine 13.2 mM
// map apparent KD of MS2 coat protein to label using low: < 30 nM; moderate: ≥ 30 nM and < 60 nM; high: ≥ 60 nM

Query: Sort ACCUGUACGAAAAGUGCAGGACAUGGUAAACGAGGACCGGUACGGCCGCCACUCGAAUAACAAGUGGAUCACCCUUGUAACCAUG [TrypAS 5 #AlternativeMS2 #Zipper #StaticStem] into one of the categories.
Reply: moderate

Query: Sort UGGGUUGGACCAGGAAAUGGUCUGACGCACCGAGGACCGGUACGGCCGCCACUCGGCCGUACAUGAGGAUCACCCAUGUCGGUGU [#1 Same State - Tryptophan A Attempt #13 (HarryS)] into one of the categories.
Reply: high

Query: Sort CGGUUUGUGAUGGAUACCAGCAGAGAAAAUGUUUAUCCUAACAUGAGGAUCACCCAUGUGUGCCCUUGGCAGCUGUUGUGGGCUG [8.W] into one of the categories.
Reply: moderate

Query: Sort AAGACAUGAGGAUCACCCAUGUCGUCAACACGAGGACCGGUACGGCCGCCACUCGCAUGCCAAUGAGCGCAUGCGGCCUGGGUAU [Exclusion Tryp A GF4] into one of the categories.
Reply: low

Query: Sort UUAUGCAGGUCGGCCGCCACUACACACAUGAGGAUCACCCAUGUAGUUACUGGGUGAAGUGGCAGUAGGACCGGGACCUGCACAC [Brourdmod14] into one of the categories.
Reply: high

Query: Sort ACCUGUACGAAAAGUGCAGGACAUGGAAAUCGAGGACCGGUACGGCCGCCACUCGUAUAAAACAAGUGGAUCACCCUUGUCCAUG [TrypAS 2 #AlternativeMS2 #Zipper #StaticStem] into one of the categories.
Reply: high

Query: Sort AGCGCGAAUAGAUCCAAAGUUAUUAGUGAGCGAGGACCGGUACGGCCGCCACUCGUGGCUCUACAUGAGGAUCACCCAUGUACAU [theeternabot_exclusion_MS2_Trp_A_10] into one of the categories.
Reply: moderate

Query: Sort GGUCUCUGGAGCGAUACCAGCUUGAUCGUACUAGCCUGGUACAUGAGGAUCACCCAUGUAAGCCCUUGGCAGCGCUCCAGAGACC [#1 Exclusion - Theophylline B Attempt #8 (HarryS)] into one of the categories.
Reply: low

Query: Sort UCGUGAGUUUCGGAUACCAGUGUGGUCGAUACAUGAGGAUCACCCAUGUUAGAGGAGGUACACCCUUGGCAGCCGGCUGUGGCGG [hlhmullin] into one of the categories.
Reply: moderate

* * *

test system: K4 kissing-loop RNA reporter; experiment: apparent KD of K4 kissing-loop reporter; higher = weaker reporter binding; details: Eterna round: R107; input ligand: none
measured.endpoint: apparent KD of K4 kissing-loop reporter (nM)
Please state the figure in nM; there is no need to write the unit.

K4 kissing-loop RNA reporter assay, sequence GCUAGGAUGGCAGGAUAUAGUUCGUGAGUGAUGUUCAAAGAACUAAGAGGGACACCUCAUUCUAAACUAGAAGGGCCAUCCUAGC , recorded apparent KD of K4 kissing-loop reporter = 276

K4 kissing-loop RNA reporter assay, sequence UCCUGCAAUCGACCACGAAAGUGGAUGGAUACCAGAGUCGAAAGACUCCCUUGGCAGCCAGUGAUGUUGGAAGCAGGUAAAUAAA [#SwitchBubble 17 #K4Late] , recorded apparent KD of K4 kissing-loop reporter = 445

K4 kissing-loop RNA reporter assay, sequence AAACAUCACUGGGAGUGAUGUUCUCAGUGACGAGGACCGGUACGGCCGCCACUCGCGAGAGAUAUAGAUGAGUAAUGACAUCAUU [Excl Tryptophan A V3] , recorded apparent KD of K4 kissing-loop reporter = 286

K4 kissing-loop RNA reporter assay, sequence GAUGAAUGCGGAAGGAGCGAGUUUUUGGGAGUGAUGUUCCCUGCAUAUGCACGUGGGAAAGCUCAGGUAGGUCGCCGCGCUUGUU [Same State Arginine B GF 28] , recorded apparent KD of K4 kissing-loop reporter = 324

K4 kissing-loop RNA reporter assay, sequence AAUUAAGUGACGGCCGCCACUAGGGUGAUUUUUUUGUUUGAGUGAUGUUUUGAUGUUUGAUUUUGUAGGACCGGGUUAGGUGAUG [juhmullin] , recorded apparent KD of K4 kissing-loop reporter = 426

K4 kissing-loop RNA reporter assay, sequence AUUUUGGUUUAGAGUGAUGUUCCUUGUGUUCGAGGACCGGUACGGCCGCCACUCGGGUAGAAAAGAAAAGAAAUGUUUGAUUUUU [BDazzled - #10 SS Tryptophan A] , recorded apparent KD of K4 kissing-loop reporter = 548

* * *

system: MS2 coat protein; assay: apparent KD of MS2 coat protein; designed switch direction (-1 OFF switch, 1 ON switch): 1; higher = weaker reporter binding; details: input ligand: microRNA oligo, concentration not stated
measured.endpoint: apparent KD of MS2 coat protein
Just the number plus its unit, please.

Reported apparent KD of MS2 coat protein of GAGUGGUGGAGAGGAUAUACAUUGUUAUUCACUGUAGAAGGUUCUAACAUGAGGAUCACCCAUGUAGGACUAUUCCUGUGUUUU [Parity 57 - Jieux - Same State NG 1] (Eterna round: R96, puzzle: Same State NG 1) : 9.37 nM

Reported apparent KD of MS2 coat protein of GAGUAGUUGGGAGGAUAUGCAUUGUUAUUAAAUGCAGAAGGUUUUAACAUGAGGAUCACCCAUGUAGGACUAUUCCUGUGUAUC [Parity 70 - Jieux - Same State NG 1] (Eterna round: R96, puzzle: Same State NG 1) : 13.7 nM

Reported apparent KD of MS2 coat protein of GUGGUCAGACAUGAGGAUCACCCAUGUGGAAUAAAUAAGGACUAGGAUAUGUAAUAUAGGAUAUAACAGAAGGAGUGGUUGGUG (Eterna round: R96, puzzle: Same State NG 3) : 42.1 nM

* * *

system: K4 kissing-loop RNA reporter; assay: apparent KD of K4 kissing-loop reporter; higher = weaker reporter binding; details: Eterna round: R107; input ligand: theophylline 20 uM;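 further: bound reporter read as fluorescence of individual clusters on recovered sequencing chips by microscopy, with normalized cluster intensities fitted with a binding model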
Label scheme for apparent KD of K4 kissing-loop reporter: lower than 200 nM is condition not met, 200 nM and above is condition met.

Query: Does the reported apparent KD of K4 kissing-loop reporter for GGAGGGAUCUCGGCCGCCACUCAUAAGAAAUGGGCCUCAGAGAUAUAGUGAUGUUAUGUAAAGAAGAGGACCGGGAGAAAGAAGG [ExTryptoB.Db] fall at or above the 200 nM mark?
Reply: condition not met

Query: Does the reported apparent KD of K4 kissing-loop reporter for CCAUCGCUAUUCGAUACCAGCUACUUAGUGAUGUUAAGUUAAAAUAAAUUGUAGAUUAAAAGCCCUUGGCAGCGAAUAGUGAUGG [Theophylline B K4 19] fall at or above the 200 nM mark?
Reply: condition not met

Query: Does the reported apparent KD of K4 kissing-loop reporter for UUUAUUAAGACGGCCGCCACUGAUUCAUAGUGAUGUUAUGAUAUAAUCUUAGUGAUAUUUAUAAACAGGACCGGGUCAAUUAUUA [JR_SSTryptoB_Sub026] fall at or above the 200 nM mark?
Reply: condition not met

Query: Does the reported apparent KD of K4 kissing-loop reporter for UGGAUAUAGUGAUGUUAUAUAGAGAUGGAUACCAGCAGAGAGAAUUGCCCUUGGCAGCCGAAAGAAGUAUCAUUAGAGAAGAAUG [ExTheophyl.Ai] fall at or above the 200 nM mark?
Reply: condition met

Query: Does the reported apparent KD of K4 kissing-loop reporter for CGAAGAUUCCAUGAUACCAGCCUCGGCCCAUAGAGUGAUGUUCUAGUCGGGUCCGUUCGCGGCCCUUGGCAGCAUUUCACCACGA [theeternabot_sameState_KL_Theo_B_44] fall at or above the 200 nM mark?
Reply: condition met

Query: Does the reported apparent KD of K4 kissing-loop reporter for GACGUUGAAGCGGCCGCCACUAGGAAGGGUACGGAGAGUACAUCUCACGGAGAGUGAUGUUCUCAUAGGACCGGGCUCAUAUCAA [theeternabot_sameState_KL_Trp_B_21] fall at or above the 200 nM mark?
Reply: condition met
